- system: T1, XPG (human, UniProt P28715 2-1186)
- T1 sequence: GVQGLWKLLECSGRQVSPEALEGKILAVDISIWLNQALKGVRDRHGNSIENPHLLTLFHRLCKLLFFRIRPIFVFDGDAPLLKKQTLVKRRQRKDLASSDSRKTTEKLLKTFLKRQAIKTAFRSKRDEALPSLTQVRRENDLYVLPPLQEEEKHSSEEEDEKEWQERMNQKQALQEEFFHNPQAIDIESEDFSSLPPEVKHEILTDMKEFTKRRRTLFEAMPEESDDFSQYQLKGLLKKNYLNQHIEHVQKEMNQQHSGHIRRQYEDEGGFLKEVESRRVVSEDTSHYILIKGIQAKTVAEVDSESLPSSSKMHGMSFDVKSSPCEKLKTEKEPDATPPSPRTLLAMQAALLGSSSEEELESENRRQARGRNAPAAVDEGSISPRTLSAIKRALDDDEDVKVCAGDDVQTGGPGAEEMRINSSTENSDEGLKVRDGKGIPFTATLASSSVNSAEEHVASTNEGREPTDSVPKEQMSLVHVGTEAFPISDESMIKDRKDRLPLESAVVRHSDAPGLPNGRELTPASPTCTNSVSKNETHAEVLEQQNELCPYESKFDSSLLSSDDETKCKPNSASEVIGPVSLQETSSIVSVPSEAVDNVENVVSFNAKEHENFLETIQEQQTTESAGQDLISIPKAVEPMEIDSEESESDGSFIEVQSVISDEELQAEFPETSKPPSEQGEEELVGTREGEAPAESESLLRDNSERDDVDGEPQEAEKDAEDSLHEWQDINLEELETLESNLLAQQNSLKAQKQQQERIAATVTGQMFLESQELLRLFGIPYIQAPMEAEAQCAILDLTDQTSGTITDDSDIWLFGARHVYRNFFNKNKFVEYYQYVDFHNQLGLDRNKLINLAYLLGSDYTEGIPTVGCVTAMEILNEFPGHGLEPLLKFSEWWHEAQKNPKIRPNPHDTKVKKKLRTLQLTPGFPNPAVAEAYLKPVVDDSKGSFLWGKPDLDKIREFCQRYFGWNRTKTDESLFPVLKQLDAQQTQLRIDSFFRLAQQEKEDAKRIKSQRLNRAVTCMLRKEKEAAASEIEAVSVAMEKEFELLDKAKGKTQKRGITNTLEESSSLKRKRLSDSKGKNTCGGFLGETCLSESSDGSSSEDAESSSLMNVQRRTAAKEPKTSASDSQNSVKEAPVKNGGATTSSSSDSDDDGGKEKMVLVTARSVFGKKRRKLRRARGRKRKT
- method: EMSA
test.readout: Kd

3'Cy5 40ss/24ds (mixed) DNA 1: TTTTTTTTTTTTTTTTTTTTTTTTTTTTTTTTTTTTTTTTGCTGTTGCCCGTCTCACTGGTGAA DNA 2: TTCACCAGTGAGACGGGCAACAGC = ~134 nM
